- target.system: T1, neutrophil elastase (Homo sapiens, UniProt P08246)
- T1 chain: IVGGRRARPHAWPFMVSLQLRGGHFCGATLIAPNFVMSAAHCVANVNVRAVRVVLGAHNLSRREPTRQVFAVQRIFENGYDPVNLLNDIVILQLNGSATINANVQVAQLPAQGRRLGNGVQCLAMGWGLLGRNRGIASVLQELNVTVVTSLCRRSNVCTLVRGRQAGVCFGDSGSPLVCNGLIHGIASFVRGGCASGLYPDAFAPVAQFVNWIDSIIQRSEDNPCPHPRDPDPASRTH
- measurement.notes: SPR
measured.metric: Kd (nM)
Numbers only, in nM.

# input Need Kd of Agaphelin 1-58 (protein) DINSEMATCACQLIYRPVCASNNESYSNECVLKCASETPTGRSIGLHKVKDGNCNGEF , thanks.
# output 17.4
